measured target: rabbit albumin (rabbit) (UniProt P49065)
Sequence (P49065 25-608 limits assumed): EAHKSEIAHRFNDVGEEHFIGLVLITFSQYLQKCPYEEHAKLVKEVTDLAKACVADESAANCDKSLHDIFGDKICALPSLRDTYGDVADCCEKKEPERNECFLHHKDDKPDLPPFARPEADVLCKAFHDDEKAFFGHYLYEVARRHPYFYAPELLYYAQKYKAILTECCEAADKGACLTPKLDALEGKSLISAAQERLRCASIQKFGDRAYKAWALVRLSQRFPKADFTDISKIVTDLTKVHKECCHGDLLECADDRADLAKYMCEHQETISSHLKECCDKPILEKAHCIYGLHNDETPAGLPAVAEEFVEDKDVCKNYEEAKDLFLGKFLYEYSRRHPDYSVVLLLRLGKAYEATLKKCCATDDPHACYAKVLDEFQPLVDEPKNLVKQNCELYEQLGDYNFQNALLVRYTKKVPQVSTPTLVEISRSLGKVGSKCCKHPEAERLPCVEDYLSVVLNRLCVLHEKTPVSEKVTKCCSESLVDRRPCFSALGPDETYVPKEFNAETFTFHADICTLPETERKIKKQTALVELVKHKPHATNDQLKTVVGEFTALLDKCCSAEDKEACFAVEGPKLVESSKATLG
measurement notes: direct binding ELISA, immobilized albumin
Bridges are numbered along the chain shown (N, C = ends). Where no end group is shown, it is not given here.
measure name: EC50

1. {Fab4D5 heavy chain (…CDKTH)}-IEDICLPRWGCLWE (Fab, part only; not given: carrier Fab4D5 heavy and light chains, not shown: another chain or arm of the molecule; large carriers, disulfide 5-11) [AB.Fab4D5-H8]	500 nM
2. {Fab4D5 heavy chain (…CDKTH)}-DICLPRWGCLW (Fab, part only; not given: carrier Fab4D5 heavy and light chains, not shown: another chain or arm of the molecule; large carriers, disulfide 3-9) [AB.Fab4D5-H10]	> 2000 nM
3. {Fab4D5 heavy chain (…CDKTH)}-DICLPRWGCLWED (Fab, part only; not given: carrier Fab4D5 heavy and light chains, not shown: another chain or arm of the molecule; large carriers, disulfide 3-9) [AB.Fab4D5-H4]	500 nM
4. {Fab4D5 heavy chain (…CDKTH)}-DICLPRWGCL (Fab, part only; not given: Carrier Fab (trastuzumab), not shown: another chain or arm of the molecule; large carriers, disulfide 3-9) [AB.Fab4D5-H11]	> 2000 nM
